The reported numbers originate from PubChem BioAssay (NCI).

Consider the following molecules; for each one, report its TGI.
tested on: OVCAR-5 ovarian; assay: NCI tumour cell line growth inhibition, 48 h

INPUT: Fill in the blank: the reported TGI of CCOc1ccccc1NC(=O)C(=O)C(C(=O)c1ccc2ccccc2c1)C1OC(=O)c2ccccc21 (stereo unspecified) is ____.
OUTPUT: 46.1 µM

INPUT: Which TGI reading was recorded for the molecule `CN(CCCCN1CCCC1)CCCCN(C)C(=O)Cc1ccc(Cl)c(Cl)c1` ?
OUTPUT: 41.2 µM

INPUT: What value of TGI has been reported for the following molecule? `CCc1cccc(CC)c1Nc1nc2c(s1)C(=O)c1ccccc1C2=O`
OUTPUT: 39.7 µM

INPUT: For `C/C1=N\NC(=O)c2ccccc2C(=O)N/N=C(\C)c2cccc1n2.O=[N+]([O-])[O-].[Zn+2]` , what is its reported TGI?
OUTPUT: > 100 µM

INPUT: # input molecule: `CCOC(=O)/C(=C\c1ccnc2ccccc12)P(=O)(OCC)OCC` ; wanted: its TGI
OUTPUT: 6.78 µM

INPUT: What does the record list as TGI for `COc1ccc2c(O)c(/C=C3\N=Nc4ncccc43)oc2c1C[C@H]1CCNC[C@H]1F` ?
OUTPUT: 24.6 µM
